# Read-out: Phosphatase and tensin (PTEN), PTEN (gene 5728)
# assay_remarks: LTEA_HepaRG_PTEN: Life Technologies and Expression Analysis (LTEA) Assay for Phosphatase and tensin (PTEN) using HepaRG (AID 2283523)
# measurement_conditions: mRNA level, 48 h; actives raise or lower the signal
# Protocol: LTEA_HepaRG is a cell based, multiplexed-readout assay that uses HepaRG, a human liver cell line, with measurements taken at 48 hours after chemical dosing on a 96-well plate.LTEA_HepaRG_PTEN is one of 102 assay component(s) measured in the LTEA HepaRG cell culture assay. It is a marker of Cell proliferation, survival, death.Data from the assay component LTEA_HepaRG_PTEN was analyzed into 1 endpoint. […]
Calls of active or inactive are those of the source. How the source made its calls: active means hit-call score of the fitted dose curve at least 0.9, where 1 is the maximum; inactive means score below 0.9.
Bench note: report the call from true for active, false for inactive

Task item: Which result was noted for this compound in the test: O=C(Nc1ccc([N+](=O)[O-])cc1Cl)c1cc(Cl)ccc1O
Reply: true

Task item: Which result was noted for this compound in the test: N[C@@H](Cc1cc(I)c(Oc2ccc(O)c(I)c2)c(I)c1)C(=O)O
Reply: false

Task item: Which result was noted for this compound in the test: CC(=O)[C@H]1CC[C@H]2[C@@H]3CCC4=CC(=O)CC[C@]4(C)[C@H]3CC[C@]12C
Reply: true

Task item: Which result was noted for this compound in the test: O=C(O)c1ccccc1
Reply: false

Task item: Which result was noted for this compound in the test: c1ccc2[nH]c(-c3cscn3)nc2c1
Reply: false

Task item: Which result was noted for this compound in the test: CCCN(CCC)c1c([N+](=O)[O-])cc(C(F)(F)F)c(N)c1[N+](=O)[O-]
Reply: false

###

# assay_remarks: Tanguay_ZF_120hpf_SNOU_legacy: (Legacy) Oregon State University Tanguay Lab 120 Hour Post-fertilization zebrafish Assay for Snout Malformation (AID 2283637)
Results filed as inconclusive are left out. Calls of active or inactive are those of the source. How the source made its calls: active means hit-call score of the fitted dose curve at least 0.9, where 1 is the maximum; inconclusive means response in the unintended direction; inactive means score below 0.9.
readout_kind: AC50

Worked examples follow.
[
  {
    "compound": "Oc1ccc(C(c2ccc(O)cc2)C(Cl)(Cl)Cl)cc1",
    "AC50": "138 µM (active)"
  },
  {
    "compound": "CC(=O)S[C@@H]1CC2=CC(=O)CC[C@]2(C)[C@H]2CC[C@@]3(C)[C@@H](CC[C@@]34CCC(=O)O4)[C@H]12",
    "AC50": "inactive"
  },
  {
    "compound": "CCNc1nc(N)nc(Cl)n1",
    "AC50": "inactive"
  },
  {
    "compound": "CCCCC(CC)COC(=O)c1ccccc1C(=O)O (stereo not given)",
    "AC50": "inactive"
  },
  {
    "compound": "Cc1nn(C)c(Oc2ccccc2)c1C=NOCc1ccc(C(=O)OC(C)(C)C)cc1",
    "AC50": "inactive"
  },
  {
    "compound": "C[C@]12C[C@H](O)[C@H]3[C@@H](CCC4=CC(=O)CC[C@@]43C)[C@@H]1CC[C@@H]2C(=O)CO",
    "AC50": "inactive"
  }
]

Task item: Using known records, supply AC50 for C#C[C@]1(O)CC[C@H]2[C@@H]3CCC4=CC(=O)CC[C@@H]4[C@H]3CC[C@@]21CC
Reply: inactive

Task item: Using known records, supply AC50 for CC(C)(C)[C@@H](O)[C@@H](Cc1ccc(Cl)cc1)n1cncn1
Reply: 10.5 µM (active)

Task item: Using known records, supply AC50 for CCN(CC)C(=O)c1cccc(C)c1
Reply: inactive

Task item: Using known records, supply AC50 for O=C(O)c1ccccc1
Reply: inactive
